Numbers sourced from PubChem BioAssay AID1069.

methodDescription: LNCaP granularity increase inducers, single-point recheck – cell-based, side scatter shift, flow cytometry, confirmation (AID 1069);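 also: LNCaP human prostate cancer cells in low-serum medium with charcoal-stripped FBS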
conditionDetails: LNCaP differentiation, 4 d, at 100 µM
The source made the active and inactive calls.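 The calls were made as follows: active = high combined rank on largest and smallest cell-count-weighted shift across three tests, rank score above 45, floors 50 and 25 (some results past the limit were not filed as active); inactive = the rest.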
Form entry, call: pick from YES = active, NO = inactive

Solved cases below.
CCOC(=O)c1ccccc1NC(=O)Cn1c(-c2nonc2N)nc2ccccc21: YES
COc1ccc(CC(=O)Nc2ccc(-c3nnc(-c4ccc(C)cc4)o3)cc2)cc1: NO
COc1cc(C(=O)NCc2nnc(SCC(=O)NCc3ccccc3)o2)cc(OC)c1OC: NO
Cc1oc(-c2ccc(Cl)cc2)nc1CN1CCC(C(=O)NCc2ccco2)CC1: NO
Cc1ccccc1-c1nc(CN2CCCC(C(=O)NCCCN3CCOCC3)C2)c(C)o1 (stereo unspecified): YES

Hi team, can someone confirm the assay call for CCN1C(=O)OC2(CCCCC2)C1(C)O (stereo unspecified) ?
NO
